Reported Final survival, Number values for the following compounds.
- Test system: TG-180 tumour cells
- PROTOCOL_DETAILS: Antitumour action on grafted TG-180 ascitic tumour
- CONDITION_INFO: +CP +IFN
Lab note: write the figure by itself, no unit.

COMPOUND: CCC(N)C(=O)O (stereo not drawn) [alphaaminobut., alpha aminobutyric acid]
RESULT_NUMBER: 14

COMPOUND: CC(C)(N)C(=O)O [alphaaminoiso., alpha aminoisobutyric acid]
RESULT_NUMBER: 14

COMPOUND: NCCCC(=O)O [GABA, gamma aminobutyric acid]
RESULT_NUMBER: 17

Now for another entry.
# returns recorded Final survival, Number (system: TG-180 tumour cells) for OC[C@H]1O[C@@H](O[C@H]2[C@H](O)[C@@H](O)C(O)O[C@@H]2CO)[C@H](O)[C@@H](O)[C@H]1O (stereo partly shown) [Lactose, lactose]
29

---

- Test system: TG-180 tumour cells
- PROTOCOL_DETAILS: Antitumour action on grafted TG-180 ascitic tumour
- CONDITION_INFO: +CP +IFN
Reported Final survival, Number values for the following compounds.
Lab note: write the figure by itself, no unit.

Below are worked cases with known answers.
COMPOUND: O=C[C@H](O)[C@@H](O)[C@@H](O)[C@H](O)C(=O)[O-].[Na+] [Na galacturonate, sodium galacturonate]
RESULT_NUMBER: 11
--
COMPOUND: N[C@H]1C(O)O[C@H](CO)[C@@H](O)[C@@H]1O (stereo partly drawn)
RESULT_NUMBER: 35

Now for another entry.
For CC(=O)N[C@H]1[C@H]([C@H](O)[C@H](O)CO)OC(O)(C(=O)O)C[C@@H]1O (stereo partly drawn) , what is its reported Final survival, Number?
11

---

- System: TG-180 tumour cells
- PROTOCOL_DETAILS: Antitumour action on grafted TG-180 ascitic tumour
- CONDITION_INFO: +CP +IFN
Use MET when the recorded MST (mean survival time) is no lower than 70 days; use NOT MET when it is lower.

The examples below pair each entry with its known result.
MOLECULE: O=C[C@H](O)[C@@H](O)[C@@H](O)[C@H](O)C(=O)[O-].[Na+] [Na galacturonate, sodium galacturonate]
CLASS_LABEL: MET
--
MOLECULE: OC[C@H]1O[C@@H](O[C@H]2[C@H](O)[C@@H](O)C(O)O[C@@H]2CO)[C@H](O)[C@@H](O)[C@H]1O (stereo partly shown) [Lactose, lactose]
CLASS_LABEL: MET
--
MOLECULE: CC(C)(N)C(=O)O [alphaaminoiso., alpha aminoisobutyric acid]
CLASS_LABEL: NOT MET

Here is the next item to consider.
Could you please find out whether CCC(N)C(=O)O (stereo not drawn) [alphaaminobut., alpha aminobutyric acid] has MST (mean survival time) that meets 70 days or exceeds it?
NOT MET

---

Reported percentage surviving values for the following molecules.
- System: encephalomyocarditis virus (EMC)
- PROTOCOL_DETAILS: Protection of IFN against the encephalomyocarditis virus in Swiss mice, with SCL inhibiting sugars
- Assay type: in vivo
- CONDITION_INFO: sugar +IFN (20,000 units); EMC virus i.p.
State just the number; it will be interpreted in %.

MOLECULE: O=C([O-])C1OC(O)C(O)C(O)C1O.[Na+] (stereo not shown) [Na glucuronate, reference compound]
UNITS_OF_MEASURE: %
percentage surviving: 11

MOLECULE: CC(=O)N[C@H]1[C@H]([C@H](O)[C@H](O)CO)OC(O)(C(=O)O)C[C@@H]1O (stereo partly shown)
UNITS_OF_MEASURE: %
percentage surviving: 53

For N[C@H]1C(O)O[C@H](CO)[C@@H](O)[C@@H]1O (stereo partly shown) , what is its reported percentage surviving?
31

For O=C[C@H](O)[C@@H](O)[C@@H](O)[C@H](O)C(=O)[O-].[Na+] [Na galacturonate, sodium galacturonate] , what is its reported percentage surviving?
24
